test target: recombinant full-length PfCSP (Plasmodium falciparum circumsporozoite protein, strain NF54) (Plasmodium falciparum NF54, UniProt P19597)
Sequence (P19597 20-375): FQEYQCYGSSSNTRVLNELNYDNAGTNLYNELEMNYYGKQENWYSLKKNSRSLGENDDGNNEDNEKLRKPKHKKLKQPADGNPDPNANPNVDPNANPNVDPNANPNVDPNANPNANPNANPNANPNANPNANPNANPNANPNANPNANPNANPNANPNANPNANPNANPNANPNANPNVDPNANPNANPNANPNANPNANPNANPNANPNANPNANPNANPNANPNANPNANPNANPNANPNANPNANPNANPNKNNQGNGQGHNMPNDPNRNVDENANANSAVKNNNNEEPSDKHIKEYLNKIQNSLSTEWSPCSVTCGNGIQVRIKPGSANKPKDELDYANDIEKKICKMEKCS
experimental endpoint: binding result

Form: binder = CL-511862 (antibody, V domains shown) VH: QVQLVESGGGVVQPGKSLRLSCAASGFSFSSSGMHWVRQAPDKGLEWVAIIWYDGSHKFYADSVKGRFTISRDNSDNTLFLQMDSLRAEDTAVYYCVRAYPTSYNGNYDKYGMDVWGQGTTVTVSS VL: DIQMTQSPSTLSASVGDRVTIACRASQSISTWLAWYQQKPGKAPKLLIYKASTLESGVPSRFSGSGSGTEFTLTISSLQPDDFATYYCQQFTFYWTFGQGTKVEIK ; binding result = binds

Field binding result (entry CL-512023 (antibody, V domains shown) VH: QVQLMESGGGVVQPGRSLRLSCEASGFTFSNSGMHWVRQAPGKGLEWVAIIWYDGSNRYYVDSVKGRFTISRDNSKNTLYLQMNSLRAEDTAVYYCARDGGNRYGYGWFDSWGQGTLVTVSS VL: QSVLTQPPSVSGAPGQRVTISCTGSSSNIGAGYDVHWYQQLPGTAPKLLIYGNTNRPSGVPDRFSGSKSGTSASLAITGLQAEDEADYYCQSYDSSLGGSRRVFGGGTKLTVL ) reads binds
